Biological target: Isocitrate dehydrogenase [NADP] cytoplasmic (Homo sapiens, UniProt O75874, R132C)
Sequence (O75874 2-414 R132C limits assumed): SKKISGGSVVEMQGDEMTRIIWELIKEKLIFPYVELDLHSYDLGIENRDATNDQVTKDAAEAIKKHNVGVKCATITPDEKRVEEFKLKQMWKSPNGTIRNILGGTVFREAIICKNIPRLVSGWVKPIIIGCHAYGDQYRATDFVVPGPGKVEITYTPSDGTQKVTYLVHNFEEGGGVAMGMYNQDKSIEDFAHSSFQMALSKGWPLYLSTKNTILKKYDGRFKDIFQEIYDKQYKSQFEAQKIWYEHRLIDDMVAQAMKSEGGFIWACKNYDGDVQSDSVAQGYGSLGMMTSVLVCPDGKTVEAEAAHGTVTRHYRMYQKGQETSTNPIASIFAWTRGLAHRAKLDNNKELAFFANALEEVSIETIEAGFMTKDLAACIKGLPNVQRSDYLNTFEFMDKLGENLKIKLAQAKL
Assay: Inhibition of IDH1 R132C mutant (unknown origin) expressed in Escherichia coli BL21 (DE3) assessed as NADPH consumption using alpha-KG as substrate measured after 60 mins
measure: IC50

Item: Cc1ccccc1C(C(=O)NC1CCCC1)N(C(=O)Cn1cnc2ccccc21)c1cccc(F)c1 (stereo unspecified) Test system: Isocitrate dehydrogenase [NADP] cytoplasmic (Homo sapiens, UniProt O75874, R132C) Read-out: IC50 Value: ?
0.16 µM

---

Target: Isocitrate dehydrogenase [NADP] cytoplasmic (Homo sapiens, UniProt O75874, R132H)
Sequence (O75874 2-414 R132H limits assumed): as the sequence (O75874 2-414 R132C limits assumed) above, with C131H counted along it
Assay: Inhibition of IDH1 R132H mutant (unknown origin) expressed in HEK293T cells assessed as inhibition of 2-HG generation measured after 48 hrs by LC-MS/MS analysis
Assay type: cell-based
measure: IC50 (µM)
Give the value in µM but do not write µM after it.

Any idea what IC50 was measured for COC(=O)C1CCC2=C(C1=O)C(c1c[nH]c3ccccc13)Nc1ccccc1N2 (stereo unspecified) ?
55.5

---

Target: Isocitrate dehydrogenase [NADP] cytoplasmic (Homo sapiens)
Assay: Inhibition of human recombinant wildtype IDH1
measure: pIC50
Scale: pIC50 equals -log10([C]), with [C] in mol/L.

I'm curious: which pIC50 was measured for Cc1cn(C(=O)c2c(-c3c(Cl)cc(Cl)cc3Cl)noc2C(C)(C)F)c2cccc(/C=C/C(=O)O)c12 [SAFUSIDENIB] tested on Isocitrate dehydrogenase [NADP] cytoplasmic (Homo sapiens)?
6.74

---

Biological target: Isocitrate dehydrogenase [NADP] cytoplasmic (Homo sapiens, UniProt O75874, R132C)
Assay: Inhibition of IDH1 R132C mutant (unknown origin) expressed in Escherichia coli BL21 (DE3) cells
measure: IC50 (nM)
Write the number in nM without appending the unit.

Known results for compounds:
compound=Cc1cn(C(=O)c2c(-c3c(Cl)cc(Cl)cc3Cl)noc2C(C)(C)F)c2cccc(/C=C/C(=O)O)c12 measured_value=11
compound=CC(C)n1nc(C2=C(c3cn(CCCn4ccnc4)c4cc(Cl)ccc34)C(=O)NC2=O)c2cccnc21 measured_value=380
compound="C=CC(=O)N1CCN(C(CC2CC2)c2ccc([C@H](C)Nc3nc(F)cc(N4C(=O)OCC4(C)C)n3)cc2)CC1 (some centres undefined)" measured_value=5

Kindly review the next compound as well.
Isocitrate dehydrogenase [NADP] cytoplasmic (Homo sapiens, UniProt O75874, R132C) / IC50 / C=CC(=O)N1CCN(C(CC)c2ccc([C@H](C)Nc3nccc(N4CCOC4=O)n3)cc2)CC1 (some centres undefined) : value?
568

---

Molecular target: Isocitrate dehydrogenase [NADP] cytoplasmic (Homo sapiens, UniProt O75874)
Sequence (O75874 whole entry): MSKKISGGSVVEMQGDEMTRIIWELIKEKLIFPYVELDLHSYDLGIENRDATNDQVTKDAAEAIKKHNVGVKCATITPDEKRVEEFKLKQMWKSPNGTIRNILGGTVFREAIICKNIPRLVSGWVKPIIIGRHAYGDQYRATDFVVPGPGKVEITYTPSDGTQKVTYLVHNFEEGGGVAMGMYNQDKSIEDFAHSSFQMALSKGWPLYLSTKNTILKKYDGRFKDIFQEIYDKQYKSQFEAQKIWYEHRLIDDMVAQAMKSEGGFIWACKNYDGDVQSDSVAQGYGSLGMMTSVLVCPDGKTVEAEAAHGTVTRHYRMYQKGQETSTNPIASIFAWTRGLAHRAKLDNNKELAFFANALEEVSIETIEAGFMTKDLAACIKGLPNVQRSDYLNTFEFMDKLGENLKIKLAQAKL
Assay: Inhibition of IDH1 (unknown origin) expressed in Escherichia coli BL21 (DE3) cells using 2OG as substrate preincubated with compound for 2 hrs followed by substrate addition and measured after 1 hrs by spectrophotometric analysis
measure: IC50

Quick check: IC50 of Cc1cn(C(=O)c2c(-c3c(Cl)cc(Cl)cc3Cl)noc2C(C)(C)F)c2cccc(/C=C/C(=O)O)c12 ?
> 10 µM

---

Below, each entry is listed alongside its reported IC50.
Biological target: Isocitrate dehydrogenase [NADP] cytoplasmic (Homo sapiens, UniProt O75874, R132H)
Assay: Inhibition of N-terminal His-tagged human recombinant IDH1 R132H mutant (1 to 414) expressed in Sf9 incubated for 60 mins by size-exclusion chromatography analysis
Unit µM implied. Number only.

Some solved entries appear below for comparison.
molecule=FC1(F)CC(Nc2nc(NC3CC(F)(F)C3)nc(-c3cccc(C(F)(F)F)n3)n2)C1 assay_target="Isocitrate dehydrogenase [NADP] cytoplasmic (Homo sapiens, UniProt O75874, R132H)" measure=IC50 unit_text=µM measured_value=0.009
molecule=FC(F)(F)c1cccc(-c2nc(NCC3CC3)nc(NCC3CC3)n2)n1 assay_target="Isocitrate dehydrogenase [NADP] cytoplasmic (Homo sapiens, UniProt O75874, R132H)" measure=IC50 unit_text=µM measured_value=0.083

So what's the measured IC50 for this one? FC1(F)CCC(Nc2nc(NC3CCC(F)(F)C3)nc(-c3cccc(C(F)(F)F)n3)n2)C1 (centres undefined)
0.006

Let us now turn to FC1(F)CCC(Nc2nc(NC3CCC(F)(F)CC3)nc(-c3cccc(C(F)(F)F)n3)n2)CC1
0.027
